# target-of-assay: MAT2A homodimer (Homo sapiens)
# Construct: inferred from Ni sepharose purification and imidazole elution
# assay-explanation: Biochemical assay: inhibition of MAT2A (phosphate release, PiColorLock Gold)
# details: MAT2A IC50 score; read-out: Enzyme Inhibition (Example 275)
pIC50: −log10 of the molar value.
Provide the reported pIC50 of each item.

Exam item: What value of pIC50 has been recorded for this entry: O=c1c(-c2ccc(Cl)cc2)c2nc(NCC(F)(F)F)ncc2cn1-c1ccc2n[nH]cc2c1 [Example 142]
Marked response: 6.00 to 7.00

Exam item: What value of pIC50 has been recorded for this entry: CCOc1ccc2cn(-c3ccc4nn(C)cc4c3)c(=O)c(-c3ccc(-c4nc[nH]n4)cc3)c2n1 [Example 222]
Marked response: > 7.00

Exam item: What value of pIC50 has been recorded for this entry: CCOc1ccc2cn(-c3ccc4nn(C)cc4c3)c(=O)c(-c3ccc(C4CC4)nc3)c2n1 [Example 221]
Marked response: > 7.00

Exam item: What value of pIC50 has been recorded for this entry: O=c1c(-c2ccc(Cl)cc2)c2nc(NCC(F)(F)F)ncc2cn1-c1ccc2nccn2c1 [Example 134]
Marked response: > 7.00

* * *

# target-of-assay: MAT2A homodimer (Homo sapiens)
# Construct: inferred from Ni sepharose purification and imidazole elution
# assay-explanation: Biochemical assay: inhibition of MAT2A (phosphate release, PiColorLock Gold)
# details: MAT2A IC50 score; read-out: Enzyme Inhibition (Example 275)
# Description: Mat2A protein was expressed by recombinant baculovirus in SF9 infected cells using the Bac to Bac system cloned into the pFASTBAC1 vector (Invitrogen, Carlsbad, Calif.). Recombinant MAT2A was isolated from the cell lysate of 150 g of infected cells using HP Ni sepharose column chromatography. Recombinant MAT2A homodimer was eluted with 250 and 500 mM imidazole, and fractions containing MAT2A were identified by sodium dodecyl sulfate polyacrylamide gel electrophoresis and pooled. […]
Provide the reported IC50 of each item.

Exam item: What value of IC50 has been recorded for this entry: CCCc1ccc2cn(-c3ccc4ncn(C)c4c3)c(=O)c(-c3ccc(OC(F)F)cc3)c2n1
Marked response: < 100 nM

Exam item: What value of IC50 has been recorded for this entry: Cn1nnc2ccc(-n3cc4ccc(NCC(F)(F)F)nc4c(-c4ccc(Cl)cc4)c3=O)cc21
Marked response: < 100 nM

Exam item: What value of IC50 has been recorded for this entry: Cn1cc(-n2cc3cnc(NCC(F)(F)F)nc3c(-c3ccc(OC(F)F)cc3)c2=O)ccc1=O
Marked response: < 100 nM

Exam item: What value of IC50 has been recorded for this entry: Cc1c2cc(-n3cc4ccc(NCC(F)(F)F)nc4c(-c4ccc(Cl)cc4)c3=O)ccc2nn1C
Marked response: < 100 nM

Exam item: What value of IC50 has been recorded for this entry: Cn1cc2cc(-n3cc4cnc(NCC(F)(F)F)nc4c(-c4ccc(C(F)(F)F)cc4)c3=O)ccc2n1
Marked response: < 100 nM

Exam item: What value of IC50 has been recorded for this entry: Cc1ccc(-c2c(=O)n(-c3ccc4nn(C)cc4c3)cc3ccc(OCC(F)(F)F)nc23)cn1
Marked response: < 100 nM

Exam item: What value of IC50 has been recorded for this entry: CCOc1ccc2cn(-c3ccc4nn(C)cc4c3)c(=O)c(-c3ccc(OC(F)(F)F)cc3)c2n1
Marked response: < 100 nM

Exam item: What value of IC50 has been recorded for this entry: Cn1cnc2ccc(-n3cc4ccc(NCC(F)(F)F)nc4c(-c4ccc(Cl)cc4)c3=O)cc21
Marked response: < 100 nM

Exam item: What value of IC50 has been recorded for this entry: CC(C)Nc1ncc2cn(-c3ccc4ncccc4c3)c(=O)c(-c3ccc(OC(F)F)cc3)c2n1
Marked response: < 100 nM

Exam item: What value of IC50 has been recorded for this entry: O=c1c(-c2ccc(C3CC3)cc2)c2nc(NCC(F)(F)F)ncc2cn1-c1ccc2nc(C(F)(F)F)ccc2c1
Marked response: 1000 to 10000 nM

Exam item: What value of IC50 has been recorded for this entry: O=C1N(Cc2ccn[nH]2)Cc2cnc(NCC3CC3)nc2C12CCN(Cc1ccccc1F)C2 (stereo not drawn)
Marked response: 1000 to 10000 nM

Exam item: What value of IC50 has been recorded for this entry: O=c1c(-c2ccc(Br)cc2)c2nc(NCC(F)(F)F)ncc2cn1-c1ccc2ncccc2c1
Marked response: < 100 nM

Exam item: What value of IC50 has been recorded for this entry: COc1ccc(N2Cc3cnc(NC4CCC4)nc3C3(CCN(Cc4cc[nH]n4)C3)C2=O)cc1 (stereo not drawn)
Marked response: 100 to 1000 nM

Exam item: What value of IC50 has been recorded for this entry: Cn1cc2cc(-n3cc4cnc(NCC(F)(F)F)nc4c(-c4ccc(OC(F)F)cc4)c3=O)ccc2n1
Marked response: < 100 nM

Exam item: What value of IC50 has been recorded for this entry: COc1ccc(-c2c(=O)n(-c3ccc4nn(C)cc4c3)cc3ncc(OCC(F)F)nc23)cc1
Marked response: < 100 nM

* * *

Provide the reported pIC50 of each item.
# target-of-assay: MAT2A homodimer (Homo sapiens, UniProt P31153)
# Construct: inferred from Ni sepharose purification and imidazole elution
# Sequence (P31153 whole entry): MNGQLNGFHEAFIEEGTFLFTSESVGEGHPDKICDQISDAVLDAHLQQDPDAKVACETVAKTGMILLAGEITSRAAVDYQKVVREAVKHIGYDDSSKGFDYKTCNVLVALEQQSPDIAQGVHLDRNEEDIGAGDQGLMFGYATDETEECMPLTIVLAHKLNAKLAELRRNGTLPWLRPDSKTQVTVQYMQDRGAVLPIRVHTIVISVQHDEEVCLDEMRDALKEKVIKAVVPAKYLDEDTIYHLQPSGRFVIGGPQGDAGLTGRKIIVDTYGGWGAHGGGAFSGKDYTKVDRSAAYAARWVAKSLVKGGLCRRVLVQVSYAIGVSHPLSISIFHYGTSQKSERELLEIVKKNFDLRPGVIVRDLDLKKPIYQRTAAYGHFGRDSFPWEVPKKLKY
# assay-explanation: Biochemical assay: inhibition of MAT2A (phosphate release, PiColorLock Gold)
# details: MAT2A IC50 score; read-out: Enzyme Inhibition (Example 275)
pIC50: −log10 of the molar value.

Exam item: What value of pIC50 has been recorded for this entry: CCOc1ccc2cn(-c3ccc4ncn(C)c4c3)c(=O)c(-c3ccc(OC(F)F)cc3)c2n1 [Example 253]
Marked response: > 7.00

Exam item: What value of pIC50 has been recorded for this entry: CCOc1ccc2cn(-c3ccc4nccnc4c3)c(=O)c(-c3ccc(Cl)cc3)c2n1 [Example 244]
Marked response: > 7.00

Exam item: What value of pIC50 has been recorded for this entry: COc1ccc(N2Cc3cnc(NCC4CC4)nc3C3(CCN(Cc4cn[nH]c4)C3)C2=O)cc1 (centres unmarked) [Example 102]
Marked response: 5.00 to 6.00

Exam item: What value of pIC50 has been recorded for this entry: Cn1cc2cc(-n3cc4cnc(NCC(F)(F)F)nc4c(-c4ccc(Cl)cc4)c3=O)cnc2n1 [Example 126]
Marked response: 5.00 to 6.00

Exam item: What value of pIC50 has been recorded for this entry: CCOc1ccc2cn(-c3ccc4nn(C)cc4c3)c(=O)c(-c3ccc(-c4c[nH]cn4)cc3)c2n1 [Example 224]
Marked response: > 7.00

Exam item: What value of pIC50 has been recorded for this entry: COc1cc(CN2Cc3cnc(NCC4CC4)nc3C3(CCN(Cc4ccccc4F)C3)C2=O)ccn1 (centres unmarked) [Example 119]
Marked response: 5.00 to 6.00

Exam item: What value of pIC50 has been recorded for this entry: Cn1cc2cc(-n3cc4ccc(OCC5CC5)nc4c(-c4ccc(Cl)cc4)c3=O)ccc2n1 [Example 233]
Marked response: > 7.00

Exam item: What value of pIC50 has been recorded for this entry: Cn1cc2cc(-n3cc4cnc(OCC(F)(F)F)nc4c(-c4ccc(Cl)cc4)c3=O)ccc2n1 [Example 262]
Marked response: > 7.00

* * *

Provide the reported IC50 of each item.
# target-of-assay: MAT2A homodimer (Homo sapiens, UniProt P31153)
# Construct: inferred from Ni sepharose purification and imidazole elution
# assay-explanation: Biochemical assay: inhibition of MAT2A (phosphate release, PiColorLock Gold)
# details: MAT2A IC50 score; read-out: Enzyme Inhibition (Example 275)

Exam item: What value of IC50 has been recorded for this entry: COc1ccc(N2Cc3cnc(NCC(F)(F)F)nc3C3(CCN(c4nnc(N)s4)CC3)C2=O)cc1
Marked response: 1000 to 10000 nM

Exam item: What value of IC50 has been recorded for this entry: COc1ccc(-n2cc3cnc(NCC(F)(F)F)nc3c(-c3ccc(CCO)cc3)c2=O)cc1
Marked response: < 100 nM

Exam item: What value of IC50 has been recorded for this entry: CCOc1ccc2cn(-c3ccc4ncn(C)c4c3)c(=O)c(-c3ccc(NC)nc3)c2n1
Marked response: < 100 nM

Exam item: What value of IC50 has been recorded for this entry: COc1ccc(-c2c(=O)n(-c3cnoc3)cc3cnc(NCC(F)(F)F)nc23)cc1
Marked response: 100 to 1000 nM

Exam item: What value of IC50 has been recorded for this entry: O=c1c(-c2ccc(OC(F)F)cc2)c2nc(NC3CCC3)ncc2cn1-c1ccc2ncccc2c1
Marked response: < 100 nM

Exam item: What value of IC50 has been recorded for this entry: CCNc1ncc2cn(-c3ccc4nn(C)cc4c3)c(=O)c(-c3ccc(Cl)cc3)c2n1
Marked response: < 100 nM

Exam item: What value of IC50 has been recorded for this entry: Cn1cc2cc(-n3cc4ccc(NC5CC5)nc4c(-c4ccc(OC(F)F)cc4)c3=O)ccc2n1
Marked response: < 100 nM

Exam item: What value of IC50 has been recorded for this entry: O=c1c(-c2ccc(OC(F)F)cc2)c2nc(NCC(F)(F)F)ncc2cn1-c1ccc2nccn2c1
Marked response: < 100 nM
